Data origin: patent US9924721B2

conditions: pH 2.7
Marks after values point to notes of the source that are not given here.
Quick reference: Log P of the listed items.

Solved entries (count: 2):
{"compound": "C#CCOc1cccc(F)c1C1CC(c2csc(C3CCN(C(=O)C(Br)C(=O)OCCOC)CC3)n2)=NO1 (stereo not drawn) [Example I-24]", "result": "2.85^[a]"}
{"compound": "CC(C)OC(=O)C(C(=O)N1CCC(c2nc(C3=NOC(c4ccccc4OS(C)(=O)=O)C3)cs2)CC1)n1nc(C(F)F)cc1C(F)F (stereo not drawn) [Example I-01]", "result": "3.53^[a]"}

Attention now shifts to the item below.
Identify measured Log P corresponding to CCOC(=O)C(C(=O)N1CCC(c2nc(C3=NOC(c4ccccc4OS(C)(=O)=O)C3)cs2)CC1)n1cc(C(F)(F)F)nc1C (stereo not drawn) [Example I-12] 2.99^[a]
